Cited source: patent US12568972B2

Quick list: inhibition at 300 g/ha per entry.
test system: Echinochloa crus-galli; assay: Post-emergence test, weed control effect; type: in vivo; details: 504 h, Dose 300 g/ha, after 3 weeks, fresh weight inhibition, read-out: activity level of harmful plant destruction (growth inhibition rate), Echinochloa crus-galli
Result type: inhibition at 300 g/ha (%)

{"Compound": "Cn1nc(-c2cc(O)c(Cl)cc2Cl)c(=O)cc1C(F)(F)F [C, reference compound]", "Result type": "inhibition at 300 g/ha", "Endpoint value": 0}
{"Compound": "Oc1cc(C(F)(F)F)nnc1-c1ccc(F)nc1 [Compound 207]", "Result type": "inhibition at 300 g/ha", "Endpoint value": 100}
{"Compound": "Oc1cc(Cl)nnc1-c1ccccc1 [A, reference compound]", "Result type": "inhibition at 300 g/ha", "Endpoint value": 0}
{"Compound": "Oc1cc(C(F)(F)F)nnc1-c1cccnc1F [Compound 733]", "Result type": "inhibition at 300 g/ha", "Endpoint value": 100}
{"Compound": "COc1cc(C(F)(F)F)nnc1-c1ccccc1 [D, reference compound]", "Result type": "inhibition at 300 g/ha", "Endpoint value": 0}
{"Compound": "Oc1cc(C(F)(F)F)nnc1-c1cc(F)cc(F)c1 [Compound 35]", "Result type": "inhibition at 300 g/ha", "Endpoint value": 100}
{"Compound": "Oc1cc(C(F)(F)F)nnc1-c1ccc(F)nc1F [Compound 220]", "Result type": "inhibition at 300 g/ha", "Endpoint value": 100}
{"Compound": "Oc1cc(C(F)(F)F)nnc1-c1ccc(F)c(F)c1 [Compound 744]", "Result type": "inhibition at 300 g/ha", "Endpoint value": 100}
{"Compound": "Oc1cc(C(F)(F)F)nnc1-c1cnc(F)c(Cl)c1 [Compound 1000]", "Result type": "inhibition at 300 g/ha", "Endpoint value": 100}
{"Compound": "Oc1cc(C(F)(F)F)nnc1-c1ccnc(F)c1 [Compound 206]", "Result type": "inhibition at 300 g/ha", "Endpoint value": 100}
{"Compound": "C=CCOc1cc(C(F)(F)F)nnc1-c1ccccc1 [E, reference compound]", "Result type": "inhibition at 300 g/ha", "Endpoint value": 0}
{"Compound": "Oc1cc(C(F)(F)F)nnc1-c1ccc(Cl)cc1 [Compound 739]", "Result type": "inhibition at 300 g/ha", "Endpoint value": 100}
{"Compound": "Oc1cc(C(F)(F)F)nnc1-c1ccc(F)cc1 [Compound 32]", "Result type": "inhibition at 300 g/ha", "Endpoint value": 100}
{"Compound": "Cc1cc(-c2nnc(C(F)(F)F)cc2O)n(C)n1 [Compound 779]", "Result type": "inhibition at 300 g/ha", "Endpoint value": 100}
{"Compound": "Oc1cc(C(F)(F)F)nnc1-c1ccc(F)c(Cl)c1 [Compound 740]", "Result type": "inhibition at 300 g/ha", "Endpoint value": 100}
{"Compound": "CCCCCCCCSC(=O)Oc1cc(Cl)nnc1-c1ccccc1 [B, reference compound]", "Result type": "inhibition at 300 g/ha", "Endpoint value": 0}

====

Quick list: weed control effect, Chenopodiaceae (activity level) per entry.
tested on: Chenopodiaceae; assay: Post-emergence test, weed control effect; type: in vivo; details: Dose 3000 g/ha, after 3 weeks
Result type: weed control effect, Chenopodiaceae (activity level)

{"Compound": "O=S(=O)(Cc1ccccc1)Oc1cc(C(F)(F)F)nnc1-c1ccc(F)cc1 [Compound 1-143]", "Endpoint value": 10}
{"Compound": "Cc1ccc(S(=O)(=O)Oc2cc(C(F)(F)F)nnc2-c2ccc(F)cc2)cc1 [Compound 1-132]", "Endpoint value": 10}
{"Compound": "O=C(Oc1cc(C(F)(F)F)nnc1-c1ccc(F)cc1)c1ccccc1O [Compound 1-85]", "Endpoint value": 10}

====

tested on: Chenopodiaceae; assay: Post-emergence test, weed control effect; format: in vivo; details: Dose 3000 g/ha, after 3 weeks
Text: […]
Quick list: weed control effect, Chenopodiaceae (activity level) per entry.
Result type: weed control effect, Chenopodiaceae (activity level)

{"Given smiles": "O=C(COCc1ccccc1)Oc1cc(C(F)(F)F)nnc1-c1ccc(F)c(F)c1", "System under test": "Chenopodiaceae", "Endpoint value": 10}
{"Given smiles": "CC(C)CC(CC(C)C)=NOc1cc(C(F)(F)F)nnc1-c1ccc(Cl)cc1", "System under test": "Chenopodiaceae", "Endpoint value": 10}
{"Given smiles": "O=C(Oc1cc(C(F)(F)F)nnc1-c1ccc(C(F)(F)F)cc1)c1cccs1", "System under test": "Chenopodiaceae", "Endpoint value": 10}
{"Given smiles": "O=C(Oc1cc(C(F)(F)F)nnc1-c1ccc(F)cc1)C(F)(F)C(F)(F)C(F)(F)F", "System under test": "Chenopodiaceae", "Endpoint value": 10}
{"Given smiles": "O=C(COc1cc(C(F)(F)F)nnc1-c1ccc(F)c(F)c1)c1ccccc1", "System under test": "Chenopodiaceae", "Endpoint value": 10}
{"Given smiles": "CCCCOC(=S)Oc1cc(C(F)(F)F)nnc1-c1ccc(F)c(F)c1", "System under test": "Chenopodiaceae", "Endpoint value": 10}
{"Given smiles": "CCCCCCCCOC(=O)Oc1cc(C(F)(F)F)nnc1-c1ccc(F)cc1", "System under test": "Chenopodiaceae", "Endpoint value": 10}
{"Given smiles": "COCC(=O)Oc1cc(C(F)(F)F)nnc1-c1ccc(F)c(F)c1", "System under test": "Chenopodiaceae", "Endpoint value": 10}
{"Given smiles": "CCC/C=N\\Oc1cc(C(F)(F)F)nnc1-c1ccc(F)cc1", "System under test": "Chenopodiaceae", "Endpoint value": 10}
{"Given smiles": "Cn1cc(S(=O)(=O)Oc2cc(C(F)(F)F)nnc2-c2cccc(F)c2)cn1", "System under test": "Chenopodiaceae", "Endpoint value": 10}
{"Given smiles": "O=C(Cc1ccccc1)Oc1cc(C(F)(F)F)nnc1-c1ccc(F)c(F)c1", "System under test": "Chenopodiaceae", "Endpoint value": 10}
{"Given smiles": "O=C(Oc1cc(C(F)(F)F)nnc1-c1ccc(Cl)cc1)c1ccccc1Cl", "System under test": "Chenopodiaceae", "Endpoint value": 10}
{"Given smiles": "CCc1cccc(-c2nnc(C(F)(F)F)cc2OS(=O)(=O)c2cc3ccccc3s2)c1", "System under test": "Chenopodiaceae", "Endpoint value": 10}
{"Given smiles": "O=S(=O)(Oc1cc(C(F)(F)F)nnc1-c1ccc(F)c(F)c1)c1cc(F)c(Br)cc1F", "System under test": "Chenopodiaceae", "Endpoint value": 10}
{"Given smiles": "NC(=O)c1ccc(S(=O)(=O)Oc2cc(C(F)(F)F)nnc2-c2ccc(C(F)(F)F)cc2)cc1", "System under test": "Chenopodiaceae", "Endpoint value": 10}
{"Given smiles": "O=C(CSc1ccccc1)Oc1cc(C(F)(F)F)nnc1-c1ccc(F)c(F)c1", "System under test": "Chenopodiaceae", "Endpoint value": 10}
{"Given smiles": "Fc1ccc(-c2nnc(C(F)(F)F)cc2Oc2ccccc2)cc1F", "System under test": "Chenopodiaceae", "Endpoint value": 10}

====

Quick list: weed control effect (activity level), Rorippa indica per entry.
system: Rorippa indica; assay: Post-emergence test, weed control effect; assay type: in vivo; conditions: Dose 3000 g/ha, after 3 weeks
Result type: weed control effect (activity level), Rorippa indica

{"Given smiles": "Cn1ncc(C(F)(F)F)c1-c1nnc(C(F)(F)F)cc1O", "System under test": "Rorippa indica", "Endpoint value": 10}
{"Given smiles": "Oc1cc(C(F)(F)F)nnc1-c1cnc(Cl)cc1Cl", "System under test": "Rorippa indica", "Endpoint value": 10}
{"Given smiles": "Oc1cc(C(F)(F)F)nnc1-c1cnc(Cl)cc1F", "System under test": "Rorippa indica", "Endpoint value": 10}

====

Quick list: weed control effect, Chenopodiaceae (activity level) per entry.
tested on: Chenopodiaceae; test: Post-emergence test, weed control effect; format: in vivo; conditions: Dose 3000 g/ha, after 3 weeks
Result type: weed control effect, Chenopodiaceae (activity level)

{"Compound": "CCCCCCCSC(=O)Oc1cc(C(F)(F)F)nnc1-c1ccc(Cl)c(Cl)c1 [Compound 1-53]", "Endpoint value": 10}
{"Compound": "CC(Cl)C(=O)Oc1cc(C(F)(F)F)nnc1-c1ccc(C(F)(F)F)cc1 (centres unmarked) [Compound 1-22]", "Endpoint value": 10}
{"Compound": "O=C(CCc1ccccc1)Oc1cc(C(F)(F)F)nnc1-c1ccc(F)cc1 [Compound 1-99]", "Endpoint value": 10}
{"Compound": "COP(=O)(OC)Oc1cc(C(F)(F)F)nnc1-c1ccc(F)c(Cl)c1 [Compound 1-167]", "Endpoint value": 10}
{"Compound": "Cc1cc(C)c(S(=O)(=O)Oc2cc(C(F)(F)F)nnc2-c2ccccc2)c(C)c1 [Compound 1-131]", "Endpoint value": 10}
{"Compound": "CC(=O)Oc1ccccc1C(=O)Oc1cc(C(F)(F)F)nnc1-c1ccccc1 [Compound 1-87]", "Endpoint value": 10}
{"Compound": "O=C(Oc1cc(C(F)(F)F)nnc1-c1ccc(F)c(F)c1)c1ccc(Cl)nc1 [Compound 1-110]", "Endpoint value": 10}
{"Compound": "CCCCCC(=O)Oc1cc(C(F)(F)F)nnc1-c1ccc(C#N)cc1 [Compound 1-10]", "Endpoint value": 10}
